# Test system: NCI/ADR-RES
# assay.name: NCI tumour cell line growth inhibition, 48 h
Active and inactive are the calls of the source. Cut-off read from the data, not from the text of the source: active = GI50 up to about 1.1 µM and inactive = higher.
Outcome codes: TRUE for active, FALSE for inactive

{"molecule": "COc1ccc(C2C(C)C(=O)C(C)C(c3ccc(OC)cc3)N2N=O)cc1 (configuration not stated)", "class": "FALSE"}
{"molecule": "O=c1cc(N2CCOCC2)oc2c(-c3ccccc3)cccc12 [LY-294002]", "class": "FALSE"}
{"molecule": "COC(=O)c1c(O)ccc2c1c1c(n2Cc2cccc(C)c2)C(=O)c2ccccc2C1", "class": "FALSE"}
{"molecule": "CC(C)c1ccc(/C(C(=O)O)=C(\\O)C(=O)O)cc1", "class": "FALSE"}
{"molecule": "OC1(c2ccc3ccccc3c2)c2c(c3ccccc3c3ccccc23)C2=NCCN21 (configuration not stated)", "class": "FALSE"}
{"molecule": "C[n+]1c(Cl)cn2c3nc4ccccc4nc3c([O-])c(C#N)c21", "class": "FALSE"}
{"molecule": "O=C(Cc1ccc(Cl)c(Cl)c1)N(CCc1ccc(Cl)c(Cl)c1)CCN1CCCC1", "class": "FALSE"}
{"molecule": "Nc1ncc(CN2CCCC2)c(-c2ccccc2O)n1", "class": "FALSE"}
{"molecule": "COc1ccc(C(O)c2ccc3c(c2)OCO3)cc1 (configuration not stated)", "class": "FALSE"}
{"molecule": "Nc1ncnc2c1N=C(c1ccccc1)CC(c1ccccc1)N2 (configuration not stated)", "class": "FALSE"}
{"molecule": "COc1cc(OC)c(C2c3cc4c(cc3OC(N3CCOCC3)C2C)OCO4)c(OC)c1 (configuration not stated)", "class": "FALSE"}
{"molecule": "Nc1ccc(C(=O)NN2C(=O)[C@H](Cl)C2c2ccc(Cl)cc2)cc1 (some centres not stated)", "class": "FALSE"}
{"molecule": "COC(=O)C1=C(C(=O)OC)SC2(S1)C(C(=O)OC)=C(C(=O)OC)Sc1c2ssc1=O", "class": "TRUE"}
{"molecule": "CCOC(=O)Cc1cc(=O)[nH]c(-n2[nH]c(C)c(CCO)c2=O)n1", "class": "FALSE"}
{"molecule": "Cn1ccnc1S/C(=C\\C=C(C#N)C#N)c1ccc(Cl)cc1", "class": "FALSE"}
{"molecule": "NC1CC(N)c2c(Br)sc(Br)c21 (configuration not stated)", "class": "FALSE"}
{"molecule": "CC(C)=C1CCC(CN2CCOCC2)C1=O (configuration not stated)", "class": "FALSE"}
{"molecule": "c1ccc(/N=C2\\S/C(=N\\C3CCCCC3)N(C3CCCCC3)\\C2=N/c2ccccc2)cc1", "class": "FALSE"}
{"molecule": "COC(=O)C1(Cc2ccc3c(c2)CCC3)Cc2ccccc2C1=O (configuration not stated)", "class": "FALSE"}
{"molecule": "COc1ccc(N2C(=O)C(C)SC2c2cc3cc(Br)ccc3nc2Cl)cc1 (configuration not stated)", "class": "FALSE"}
{"molecule": "CCCCCCCC/C=C\\CCCCCCCC(=O)OC[C@]1(CO)CCC(=O)O1", "class": "FALSE"}
{"molecule": "Cc1ccc(NC(=O)CC(=O)N2N=C(c3ccccc3)C(/N=N/c3ccc(S(=O)(=O)CCOS(=O)(=O)O)cc3)C2=O)cc1 (configuration not stated)", "class": "FALSE"}
